Data origin, for the record: patent US20260085039A1

assay: Approximate solubility by solvent aliquot addition, visual inspection, ambient temperature; format: physicochemical; conditions: methanol, organic solvent or mixture, thermodynamic from solid; MeOH, ambient temperature, estimated; read-out: Solubility
property: solubility

Looking for the measured solubility of CN(C)CCc1c[nH]c2cccc(O)c12 [psilocin, 4-hydroxy-N,N-dimethyltryptamine] , can you help?
< 1000 µg/mL

* * *

test: Approximate solubility by solvent aliquot addition, visual inspection, ambient temperature; assay type: physicochemical; conditions: organic solvent or mixture, thermodynamic from solid; Dioxane, ambient temperature, estimated; read-out: Solubility
property: solubility

Quick check: solubility of CN(C)CCc1c[nH]c2cccc(O)c12 [psilocin, 4-hydroxy-N,N-dimethyltryptamine] ?
18 mg/mL
